// data source = paper PMC3161154

# Tested on: LNCap
# Measurement description: cytotoxicity, LNCap
# Assay type: cell-based
# Condition set: read-out: LNCap (nM), cytotoxicity
Kindly supply the reported IC50 values for the records listed here.
Answers are plain numbers, in nM.

// below: answered compounds
{"Structure string": "CCC(=O)Nc1cc(=N)c2ncc3cc(C(=O)C=COC)[nH]c1c32", "Observed value": 48}
{"Structure string": "COC=CC(=O)c1cc2cnc3c(=N)cc(NC(=O)CC(C)C)c([nH]1)c23", "Observed value": 230}
{"Structure string": "CC[C@H](C)C(=O)Nc1cc(=N)c2ncc3cc(C(=O)C=COC)[nH]c1c32", "Observed value": 230}

The recorded IC50 for entry CO/C=C/C(=O)c1cc2cnc3c(=N)cc(NC(C)=O)c([nH]1)c23 equals 38

----------
# Tested on: MDA-468
# Measurement description: cytotoxicity, MDA-468
# Format: cell-based
# Condition set: read-out: MDA-468 (nM), cytotoxicity
Kindly supply the reported IC50 values for the records listed here.
One number for each entry, in nM.

{"Compound": "CCC(=O)Nc1cc(=N)c2ncc3cc(C(=O)C=COC)[nH]c1c32 [Compound 4, neolymphostin B]", "Reported endpoint": "IC50", "Observed value": 85}
{"Compound": "CO/C=C/C(=O)c1cc2cnc3c(=N)cc(NC(C)=O)c([nH]1)c23 [Compound 1, lymphostin]", "Reported endpoint": "IC50", "Observed value": 14}
{"Compound": "COC=CC(=O)c1cc2cnc3c(=N)cc(NC(=O)CC(C)C)c([nH]1)c23 [Compound 6, neolymphostin D]", "Reported endpoint": "IC50", "Observed value": 700}

The recorded IC50 for entry CC[C@H](C)C(=O)Nc1cc(=N)c2ncc3cc(C(=O)C=COC)[nH]c1c32 [Compound 5, neolymphostin C] equals 700

----------
Kindly supply the reported IC50 values for the records listed here.
# Assay target: UniProt:P42345
# Measurement description: mTor kinase inhibition
# Format: biochemical
# Condition set: read-out: mTOR (nM), mTor kinase inhibition
Numbers only, in nM.

// below: answered compounds
{"Structure string": "CO/C=C/C(=O)c1cc2cnc3c(=N)cc(NC(C)=O)c([nH]1)c23", "IC50 / nM": 1.7}
{"Structure string": "CCC(=O)Nc1cc(=N)c2ncc3cc(C(=O)C=COC)[nH]c1c32", "IC50 / nM": 1.5}
{"Structure string": "COC=CC(=O)c1cc2cnc3c(=N)cc(NC(=O)CC(C)C)c([nH]1)c23", "IC50 / nM": 1.8}

Switching to the query record.
The recorded IC50 for entry CC[C@H](C)C(=O)Nc1cc(=N)c2ncc3cc(C(=O)C=COC)[nH]c1c32 equals 1.8
